experiment: recombinant UMI read abundance after kanamycin selection (control-corrected) (log10(CPM+1)); higher = more efficient recombination; extreme values may be limits of the assay; sequences stand for … in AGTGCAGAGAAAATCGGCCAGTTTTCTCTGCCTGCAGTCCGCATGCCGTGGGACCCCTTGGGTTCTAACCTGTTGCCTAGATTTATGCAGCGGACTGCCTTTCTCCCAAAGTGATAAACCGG…AGGTTGGTTTCACT; site = the 11-nt donor;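 note: IS621 bridge recombinase in Escherichia coli cells against a fixed T5 target plasmid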
Measurement Label: recombinant UMI read abundance (log10)
Give your answer as a number; write no unit.

Fill blank: measured recombinant UMI read abundance (log10) of the sequence CAGTTGGCATGGACCGGTTTTCCCGGTAATCCGTATTTGGA (site CAATTGGCTTC) is ____.
0.882

Also check AGAAAGGCATGGACCGGTTTTCCCGGTAATCCGTATTTGGT (site AGAAAGGCTAC)
0.881

Also check TTGCCGGCATGGACCGGTTTTCCCGGTAATCCGTATTTGGC (site TAGCCGGCTGC)
0.00655

Also check GCCTTCTCATGGACCGGTTTTCCCGGTAATCCGTATTTGGG (site GCCTTCTCTCC)
0.00741

Also check AGAAAGGCATGGACCGGTTTTCCCGGTAATCCGTATTTGCC (site AGAAAGGCTCG)
0.784

Also check CAAGCGCCATGGACCGGTTTTCCCGGTAATCCGTATTTGAG (site CAAGCGCCTCA)
0.0151

Also check ATTGAGACATGGACCGGTTTTCCCGGTAATCCGTATTTGGT (site ATTAAGACTAC)
1.62

Also check CCGGGTCCATGGACCGGTTTTCCCGGTAATCCGTATTTGCA (site CCAGGTCCTTG)
0

Also check CACGTGGCATGGACCGGTTTTCCCGGTAATCCGTATTTGGA (site CACCTGGCTTC)
0.475

Also check AATGTAGCATGGACCGGTTTTCCCGGTAATCCGTATTTGCT (site AATGTAGCTAG)
1.55

Also check GAGCTTACATGGACCGGTTTTCCCGGTAATCCGTATTTGAT (site GAGCTAACTAT)
0.136

Also check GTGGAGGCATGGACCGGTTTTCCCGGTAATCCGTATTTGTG (site GTGGAGGCTCC)
0.284

Also check GGTCCGACATGGACCGGTTTTCCCGGTAATCCGTATTTGTA (site GGTCCAACTTA)
0.0275

Also check TGGATCACATGGACCGGTTTTCCCGGTAATCCGTATTTGCT (site TGGATCACTAG)
1.72

Also check CGTTATACATGGACCGGTTTTCCCGGTAATCCGTATTTGAG (site CGTTACACTCT)
0.0313

Also check GCCTAGCCATGGACCGGTTTTCCCGGTAATCCGTATTTGCC (site ACCTAGCCTGG)
0

Also check ATCTATACATGGACCGGTTTTCCCGGTAATCCGTATTTGAC (site ATCTATACTGT)
2.44

Also check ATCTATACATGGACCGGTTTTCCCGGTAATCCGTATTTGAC (site ATCTATACTTT)
0.0131

Also check AGATATACATGGACCGGTTTTCCCGGTAATCCGTATTTGTT (site AGATATACTAA)
1.74

Also check CACTAGGCATGGACCGGTTTTCCCGGTAATCCGTATTTGAT (site CACTAGGCTAT)
1.33

Also check ATTGCAACATGGACCGGTTTTCCCGGTAATCCGTATTTGGG (site ATTGCAACTCC)
0.0185

Also check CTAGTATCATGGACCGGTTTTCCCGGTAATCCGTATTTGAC (site CCAGCATCTGT)
0.00896

Also check CCGCTCTCATGGACCGGTTTTCCCGGTAATCCGTATTTGTT (site CCGCTCTCTAA)
1.51

Also check GTGTAGGCATGGACCGGTTTTCCCGGTAATCCGTATTTGGC (site ATGTAGGCTGC)
1.98

Also check TCAGGTGCATGGACCGGTTTTCCCGGTAATCCGTATTTGAT (site CCAGGTGCTAT)
1.06

Also check CGCCGTACATGGACCGGTTTTCCCGGTAATCCGTATTTGAT (site CGCCGTACTAG)
0

Also check CCTTGCCCATGGACCGGTTTTCCCGGTAATCCGTATTTGAT (site ACTTGCCCTAT)
0.00442

Also check AGTCCACCATGGACCGGTTTTCCCGGTAATCCGTATTTGGG (site AGTCCACCTCC)
0.00962

Also check ACACGAACATGGACCGGTTTTCCCGGTAATCCGTATTTGCC (site ACACGAACTGC)
0

Also check CGGAAGACATGGACCGGTTTTCCCGGTAATCCGTATTTGTG (site CGGAAGACTCA)
2.67

Also check TGTACTCCATGGACCGGTTTTCCCGGTAATCCGTATTTGAC (site TGTACCCCTGT)
0.817

Also check CCTAAGGCATGGACCGGTTTTCCCGGTAATCCGTATTTGAT (site CCTAACGCTAT)
0.00671

Also check GTTGTTCCATGGACCGGTTTTCCCGGTAATCCGTATTTGGT (site GTCGTTCCTAC)
0.005

Also check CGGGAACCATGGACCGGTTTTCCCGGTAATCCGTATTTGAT (site CGGGAAACTAT)
0

Also check TCCAATTCATGGACCGGTTTTCCCGGTAATCCGTATTTGCT (site TCCAATTCTCG)
0

Also check ATGAACACATGGACCGGTTTTCCCGGTAATCCGTATTTGTG (site ATGAACACTCA)
1.96

# credit: the supplement of paper PMC11208160
